# Assayed target: Proto-oncogene tyrosine-protein kinase Src (Homo sapiens, UniProt P12931)
# Sequence (P12931 2-536 limits assumed): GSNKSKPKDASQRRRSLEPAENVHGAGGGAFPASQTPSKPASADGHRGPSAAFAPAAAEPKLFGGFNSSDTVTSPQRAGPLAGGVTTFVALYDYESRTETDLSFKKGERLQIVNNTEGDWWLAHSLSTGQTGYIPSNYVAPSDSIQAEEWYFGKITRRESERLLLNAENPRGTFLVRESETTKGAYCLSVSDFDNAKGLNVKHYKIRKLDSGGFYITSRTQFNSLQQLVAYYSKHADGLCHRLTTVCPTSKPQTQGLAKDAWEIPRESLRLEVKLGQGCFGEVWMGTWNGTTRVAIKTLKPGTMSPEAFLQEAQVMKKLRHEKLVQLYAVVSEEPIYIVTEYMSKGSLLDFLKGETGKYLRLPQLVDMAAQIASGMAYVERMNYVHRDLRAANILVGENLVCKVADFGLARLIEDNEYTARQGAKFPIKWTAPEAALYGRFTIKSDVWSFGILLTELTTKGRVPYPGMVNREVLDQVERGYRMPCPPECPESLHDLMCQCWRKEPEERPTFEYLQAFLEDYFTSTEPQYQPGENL
Measured parameter: pIC50
The value called pIC50 is obtained by taking minus log10 of the concentration in mol/L.

INSERT INTO results (compound, assayed_target, measured_parameter, assay_result) VALUES
  ('Cc1ccc(C(=O)Nc2cccc(C(F)(F)F)c2)cc1C(=O)Nc1cncnc1', 'Proto-oncogene tyrosine-protein kinase Src (Homo sapiens, UniProt P12931)', 'pIC50', 5.92);

Given "Cc1ccc(C(=O)Nc2cccc(C(F)(F)F)c2)cc1NC(=O)c1cncnc1" , state its recorded pIC50.
5.42

* * *

# Assayed target: Mast/stem cell growth factor receptor Kit (Homo sapiens)
# Sequence (P10721 whole entry): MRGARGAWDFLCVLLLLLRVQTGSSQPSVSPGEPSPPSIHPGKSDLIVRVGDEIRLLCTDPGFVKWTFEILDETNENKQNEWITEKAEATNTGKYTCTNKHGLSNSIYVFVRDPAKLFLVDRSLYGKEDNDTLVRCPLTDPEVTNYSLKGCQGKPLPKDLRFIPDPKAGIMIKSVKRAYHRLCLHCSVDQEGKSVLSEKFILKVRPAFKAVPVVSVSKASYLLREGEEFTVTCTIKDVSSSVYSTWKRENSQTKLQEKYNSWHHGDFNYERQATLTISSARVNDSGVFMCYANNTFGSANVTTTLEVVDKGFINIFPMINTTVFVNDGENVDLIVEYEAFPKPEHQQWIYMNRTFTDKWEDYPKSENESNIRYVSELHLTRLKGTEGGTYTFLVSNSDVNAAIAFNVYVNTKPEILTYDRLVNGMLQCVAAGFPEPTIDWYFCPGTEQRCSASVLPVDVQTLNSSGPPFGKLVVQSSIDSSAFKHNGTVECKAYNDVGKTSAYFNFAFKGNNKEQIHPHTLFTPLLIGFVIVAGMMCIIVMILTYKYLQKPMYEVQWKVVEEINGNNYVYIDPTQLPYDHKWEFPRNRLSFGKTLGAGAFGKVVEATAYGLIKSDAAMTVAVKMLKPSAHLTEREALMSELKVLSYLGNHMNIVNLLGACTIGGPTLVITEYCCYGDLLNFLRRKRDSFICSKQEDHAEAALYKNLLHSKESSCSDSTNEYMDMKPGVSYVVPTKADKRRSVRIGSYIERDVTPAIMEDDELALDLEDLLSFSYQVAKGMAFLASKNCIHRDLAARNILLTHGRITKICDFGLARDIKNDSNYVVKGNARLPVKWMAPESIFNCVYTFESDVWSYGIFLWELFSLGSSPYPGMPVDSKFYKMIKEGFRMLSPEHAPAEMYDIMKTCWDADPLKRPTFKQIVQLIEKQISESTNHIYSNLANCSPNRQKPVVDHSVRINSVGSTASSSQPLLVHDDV
Measured parameter: IC50 (nM)
// return numeric value only (unit: nM, not printed)

Reference set, count: 3
INSERT INTO measurements (compound, assay_result) VALUES
  ('Cc1ccc(C(=O)Nc2cccc(C(F)(F)F)c2)cc1C(=O)Nc1cncnc1', 37),
  ('Cc1ccc(C(=O)NCC2CCCCC2)cc1C(=O)Nc1ccc(N)nc1', 1180),
  ('Cc1ccc(C(=O)NCCC2CCCCC2)cc1C(=O)Nc1ccc(N)nc1', 35);

Short answer please: IC50, Mast/stem cell growth factor receptor Kit (Homo sapiens), entry "Cc1ccc(C(=O)Nc2ccc(C(F)(F)F)cc2)cc1C(=O)Nc1ccc(N)nc1"
120

Consider next the compound "Cc1ccc(C(=O)Nc2cccc(C(F)(F)F)c2)cc1C(=O)Nc1cnc(N)nc1" in the same way.
5

Consider next the compound "Cc1ccc(C(=O)NCCN2CCCC2)cc1C(=O)Nc1ccc(N)nc1" in the same way.
3640

* * *

# Experiment summary: AUC in Sprague-Dawley rat at 10 mg/kg, po
# Assay type: ADME, organism-based
# Design: dose 10 mg/kg, route oral
# Details: plasma
Measured parameter: AUC

Reference set, count: 3
INSERT INTO results (compound, assay_result) VALUES
  ('Cc1ccc(C(=O)Nc2cccc(C(F)(F)F)c2)cc1C(=O)Nc1cncnc1', '75 ng·h/mL'),
  ('Cc1ccc(C(=O)Nc2cccc(C(F)(F)F)c2)cc1C(=O)Nc1ccc(N)nc1', '6150 ng·h/mL'),
  ('Cc1ccc(NC(=O)c2cccc(C(F)(F)F)c2)cc1C(=O)Nc1cncnc1', '2290 ng·h/mL');

Lab note: next compound to report on.
Given "Cc1ccc(C(=O)NCCC2CCCC2)cc1C(=O)Nc1ccc(N)nc1" , state its recorded AUC.
1920 ng·h/mL

* * *

# Experiment summary: Metabolic stability in Sprague-Dawley rat liver microsomes assessed as intrinsic clearance at 1 uM
# Assay type: ADME, Microsome
# Details: read-out: Stability
Measured parameter: microsomal CLint at 1 µM (µL/min/mg)
// return numeric value only (unit: µL/min/mg, not printed)

INSERT INTO measurements (compound, measured_parameter, assay_result) VALUES
  ('Cc1ccc(C(=O)NCCC2CCCC2)cc1C(=O)Nc1ccc(N)nc1', 'microsomal CLint at 1 µM', 30);

Lab note: next molecule to report on.
Given "Cc1ccc(C(=O)Nc2cccc(C(F)(F)F)c2)cc1C(=O)Nc1cncnc1" , state its recorded microsomal CLint at 1 µM.
48

* * *

The following compounds each carry a recorded IC50 for Mitogen-activated protein kinase 14 (Homo sapiens).
// return numeric value only (unit: nM, not printed)

Reference set, count: 3
INSERT INTO measurements (compound, assayed_target, assay_result) VALUES
  ('Cc1ccc(C(=O)NCCCC2CCCCC2)cc1C(=O)Nc1ccc(N)nc1', 'Mitogen-activated protein kinase 14 (Homo sapiens)', 57.8),
  ('CC(=O)Nc1ncc(NC(=O)c2cc(C(=O)Nc3cccc(C(F)(F)F)c3)ccc2C)cn1', 'Mitogen-activated protein kinase 14 (Homo sapiens)', 1730),
  ('Cc1ccc(C(=O)NCCC2CCCCC2)cc1C(=O)Nc1ccc(N)nc1', 'Mitogen-activated protein kinase 14 (Homo sapiens)', 181);

Given "CC(=O)Nc1ccc(NC(=O)c2cc(C(=O)Nc3cccc(C(F)(F)F)c3)ccc2C)cn1" , state its recorded IC50.
45

Consider next the compound "Cc1ccc(C(=O)Nc2cccc(C(F)(F)F)c2)cc1NC(=O)c1cncnc1" in the same way.
455
